B1: tRNA (parent)
chain: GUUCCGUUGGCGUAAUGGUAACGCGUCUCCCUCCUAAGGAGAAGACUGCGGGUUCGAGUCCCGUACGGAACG

variants of: B1; assay: yeast fitness relative to wild type (ratio to wild type); higher = fitter; tRNA-Arg(CCU), competitive growth, 37 C, YPD
Fewer inactive variants are shown than the library holds.
property_name: yeast fitness

Enquiry: So what does the record say about yeast fitness for G10A A21U A42G ?
Return: ≤ 0.5

Enquiry: May I ask what yeast fitness has been recorded for G18C C33G A36C C46A ?
Return: ≤ 0.5

Enquiry: Form field: reported yeast fitness of A14U A57U C60A
Return: ≤ 0.5

Enquiry: Can you share its yeast fitness? I mean this variant: U35G G38C G63A
Return: ≤ 0.5

Enquiry: What measured yeast fitness goes with C5U A21G C27U G41A ?
Return: ≤ 0.5

Enquiry: # query: yeast fitness of entry C46U G58C C60A
Return: 0.637

Enquiry: Give its yeast fitness value. Item: C22U C46G C49G
Return: 0.564

Enquiry: Given the variant C5U C30G , what is its reported yeast fitness?
Return: 0.676
